Can you tell me Relative Volatility for the items I'm about to list?
# experimental.protocol: Vapor-liquid equilibrium still, separation of 1,1,1-trichloroethane from methanol
# Format: physicochemical
# assay.context: 1,1,1-trichloroethane from methanol; vapor-liquid equilibrium still
One number for each entry.

Some compounds with recorded Relative Volatility:
Request: Item COCC(C)O (stereo not shown) has what recorded Relative Volatility?
Response: 3.1

Request: Again, but for CC(=O)OC(C)CC(C)C (stereo not shown) [4-Methyl pentyl acetate-2]
Response: 2.9

Request: Try this compound next: CC(C)CC(C)O (stereo not shown)
Response: 4.2

Request: Note, next up: COCCOCCO
Response: 3.3

Request: Another compound to look at: CCOCCOCCOC(C)=O [Diethylene glycol ethyl ether acetate]
Response: 2.8

Request: Same question, CC(=O)c1ccccc1 this time
Response: 2.3

Request: // query: CCCCC(CC)COC(C)=O (stereo not shown) [2-Ethyl hexyl acetate]
Response: 2.0

Request: What do you have for CCCCCC(C)=O ?
Response: 3.2

Hey, quick one: what's Relative Volatility for each of these?
1. CCCCOCCOCCO
2. OCC1CCCO1 (stereo not shown) [Tetrahydro furfuryl alcohol]
3. CCCCCCC(C)O (stereo not shown)
4. CCCCCCOCCOCCO

Response:
2.1
3.3
2.8
4.2

====

# experimental.protocol: Vapor-liquid equilibrium still, separation of 1,1,1-trichloroethane from ethanol
# Assay type: physicochemical
# assay.context: * Brings out Ethanol as Overhead
reported.metric: Relative Volatility
Numbers only.

Here's what some known entries look like.
Request: Consider the compound CCCC(=O)OCC [Ethyl butyrate] and give its measured Relative Volatility.
Response: 1.2

Request: Further, for COc1ccccc1 [Anisole] ?
Response: 1.25

Request: Try this compound too: CC(=O)O[C@@H]1C[C@H]2CC[C@]1(C)C2(C)C (racemic) [Isobornyl acetate]
Response: 1.6

Required: Relative Volatility, one value per compound below.
1. CC(=O)OC(C)CC(C)C (stereo not drawn) [4-Methyl pentyl acetate-2]
2. CCOCCOC(C)=O [Ethylene glycol ethyl ether acetate]
3. CCCCOC(C)=O [n-Butyl acetate]
4. CCOCCOCCOCC [Diethylene glycol diethyl ether]
5. CCOC(=O)Cc1ccccc1 [Ethyl phenyl acetate]
6. CCCCCOC(C)=O [n-Amyl acetate]

Response:
1: 1.45; 2: 1.5; 3: 3.5; 4: 1.2; 5: 1.5; 6: 1.85

====

Give Relative Volatility for every item shown.
# experimental.protocol: Vapor-liquid equilibrium still, separation of 1,1,1-trichloroethane from 2-butanol
# Type: physicochemical
Counter-ions that a name gives are not always drawn.

// solved cases for Relative Volatility follow
Request: Consider the molecule shown here: CCCCCC(C)=O What is its recorded Relative Volatility?
Response: 1.4

Request: Then this molecule: CCOC(=O)CC(C)=O [Ethyl acetoacetate]
Response: 1.8

Request: What about this molecule? CCCCCCOC=O [n-Hexyl formate]
Response: 1.5

Count: 3. Required value per item: Relative Volatility.
1. COC(=O)c1ccccc1O [Methyl salicylate]
2. CCCCC(=O)OCC [Ethyl n-valerate]
3. CCOCCOCCOCC

Response:
[1.3, 1.5, 1.6]

====

Assignment: determine reported Relative Volatility for the given compounds.
# experimental.protocol: Vapor-liquid equilibrium still, separation of 1,1,1-trichloroethane from n-propanol
# Type: physicochemical
Give bare numbers.

Request: Record request: Relative Volatility value, item CCOCCO [Ethylene glycol ethyl ether]
Response: 3.6

Request: Record: COCCO [Ethylene glycol methyl ether]
Response: 4.4

Request: // next record CC(C)CCO [Isoamyl alcohol]
Response: 3.6

Request: Now the same for CC(=O)OCCOC(C)=O [Ethylene glycol diacetate]
Response: 1.7

Request: One more compound: CCCCCCO [Hexyl alcohol]
Response: 2.5

Request: Same question for OCCOc1ccccc1 [Ethylene glycol phenyl ether] please.
Response: 2.5

Request: Param item: CC(=O)C(C)(C)C [3,3-Dimethyl-2-butanone]
Response: 1.4

Request: Same read-out for O=[N+]([O-])c1ccccc1 [Nitrobenzene] ?
Response: 1.4

Items follow; give Relative Volatility for each.
1. CC(=O)CC(C)C [Methyl isobutyl ketone]
2. COCCOCCO [Diethylene glycol methyl ether]
3. CCOCCOCCOCC [Diethylene glycol diethyl ether]
4. CN(C)C=O [Dimethylformamide]
5. CC(C)[N+](=O)[O-] [2-Nitropropane]

Response:
1. 1.5
2. 2.7
3. 1.6
4. 2.8
5. 1.4

Record Relative Volatility per entry; entries follow.
1. CCCCC(=O)CC [3-Heptanone]
2. CC(=O)c1ccccc1 [Acetophenone]

Response:
1: 1.25; 2: 1.7

Record Relative Volatility per entry; entries follow.
1. CC(=O)CC(C)=O [2,4-Pentanedione]
2. COC(=O)c1ccccc1O [Methyl salicylate]
3. CC(C)CO [Isobutanol]
4. CC(=O)CC(C)C [4-Methyl-2-pentanone]
5. CCC[N+](=O)[O-] [1-Nitropropane]
6. CCCCCCC(C)=O [2-Octanone]
7. COC(=O)c1ccccc1 [Methyl benzoate]

Response:
1.6
1.3
2.2
1.4
1.3
1.25
1.25

====

Exercise: for every item that follows, state its recorded Relative Volatility.
# experimental.protocol: Vapor-liquid equilibrium still, separation of 1,1,1-trichloroethane from 2-butanol
# Assay type: physicochemical
# assay.context: 1,1,1-trichloroethane from 2-butanol; vapor-liquid equilibrium still
Numbers only.

Solved cases below.
Request: Entry OCc1ccccc1 has what Relative Volatility?
Response: 3.5

Request: Moving on to COCC(C)OC(C)=O (stereo not shown) [1-Methoxy-2-acetoxy propane]
Response: 2.0

Request: And the next one, CC(C)COCC(C)O (stereo not shown) ?
Response: 2.4

Request: Would you mind doing CC1COC(=O)O1 (stereo not shown) [Propylene carbonate] as well?
Response: 2.4

Request: Next up: CCCCCCCCCCO
Response: 2.3

Request: Try this molecule too: CCCCCCC(C)O (stereo not shown)
Response: 2.6

Request: Same thing, different molecule: COCC(C)O (stereo not shown)
Response: 3.9

Request: Query CC(C)CC(C)O (stereo not shown) next
Response: 3.2

Request: Param item: CC(C)CCCCCO
Response: 2.4

Request: CN1CCCC1=O
Response: 3.6

Required: Relative Volatility, one value per molecule below.
1. CC(=O)CCC(C)C
2. CCCCCCOCCOCCO
3. CC(C)CCCCCCCO

Response:
1: 1.6; 2: 2.3; 3: 2.4

====

# experimental.protocol: Vapor-liquid equilibrium still, separation of 1,1,1-trichloroethane from t-butanol
# Format: physicochemical
# assay.context: 1,1,1-trichloroethane from t-butanol
Would you kindly list Relative Volatility for each of these compounds?

# annotated cases, reported Relative Volatility shown
Request: Sample COCCO — what was its Relative Volatility?
Response: 3.1

Request: Same lookup for O=C1OCCO1 [Ethylene carbonate] , please.
Response: 1.3

List reported Relative Volatility for each of these compounds:
1. COCCOCCO
2. COCC(C)O (stereo not shown)
3. CC(C)COCC(C)O (stereo not shown)
4. C[S+](C)[O-] [Dimethylsulfoxide]

Response:
1: 2.2; 2: 1.7; 3: 1.4; 4: 1.7

Below are 8 compounds. Give each one its Relative Volatility.
1. CCCCO
2. CC(C)CO
3. CC(C)CCO
4. CCOCCO
5. CCCCOCCO
6. CCOCCOCCO
7. CC1COC(=O)O1 (stereo not shown) [Propylene carbonate]
8. O=S1(=O)CCCC1

Response:
[2.7, 1.2, 3.0, 2.2, 1.7, 1.4, 1.5, 1.4]

Hey, can you go through the list below and give me Relative Volatility for every item?
1. CC(=O)OCCOC(C)=O [Ethylene glycol diacetate]
2. OCCOc1ccccc1
3. CCCCOCCOCCO

Response:
1. 1.3
2. 1.3
3. 1.5

Value sought for every listed compound: Relative Volatility.
1. CCCCCCOCCOCCO
2. CC1=CC(=O)CC(C)(C)C1

Response:
1. 1.5
2. 1.4

====

# experimental.protocol: Vapor-liquid equilibrium still, separation of 1,1,1-trichloroethane from methanol
# Format: physicochemical
reported.metric: Relative Volatility

Field: example entries. Status: answers known.
Request: Request the reported Relative Volatility associated with CC(C)CCCCCO [Isooctyl alcohol]
Response: 2.5

Request: Try this molecule next: CCC(CC)CO [2-Ethyl butanol]
Response: 1.4

Request: Same again, this time with CCOC(=O)CC(C)C [Ethyl isovalerate]
Response: 2.7

Request: Also COCC(C)OC(C)=O (stereo not drawn) [1-Methoxy-2-propanol acetate] ?
Response: 1.7

Request: Same thing, different molecule: OCCOc1ccccc1 [Ethylene glycol phenyl ether]
Response: 3.1

Continuing:
Request: Any idea what Relative Volatility was measured for CCCCCCOCCO [Ethylene glycol hexyl ether] ?
Response: 3.1

====

# experimental.protocol: Vapor-liquid equilibrium still, separation of 1,1,1-trichloroethane from methanol
# Type: physicochemical
reported.metric: Relative Volatility

Field: example entries. Status: answers known.
Request: So what's the measured Relative Volatility for this one? O=[N+]([O-])c1ccccc1
Response: 2.5

Request: Also CC(O)COc1ccccc1 (centres unmarked) , if possible.
Response: 3.1

Request: Repeat for the following compound: CCOCCOC(C)=O [Ethylene glycol ethyl ether acetate]
Response: 2.5

Request: Also check CC[N+](=O)[O-]
Response: 2.8

Please turn your attention to the following entry.
Request: Fill in the blank: the reported Relative Volatility of CC(=O)O[C@@H]1C[C@H]2CC[C@]1(C)C2(C)C (racemic) [Isobornyl acetate] is ____.
Response: 2.5
